These measurements were taken from ChEMBL document CHEMBL3425448.

- system.tested: Chronophin (Mus musculus, UniProt P60487)
- Sequence (P60487 whole entry): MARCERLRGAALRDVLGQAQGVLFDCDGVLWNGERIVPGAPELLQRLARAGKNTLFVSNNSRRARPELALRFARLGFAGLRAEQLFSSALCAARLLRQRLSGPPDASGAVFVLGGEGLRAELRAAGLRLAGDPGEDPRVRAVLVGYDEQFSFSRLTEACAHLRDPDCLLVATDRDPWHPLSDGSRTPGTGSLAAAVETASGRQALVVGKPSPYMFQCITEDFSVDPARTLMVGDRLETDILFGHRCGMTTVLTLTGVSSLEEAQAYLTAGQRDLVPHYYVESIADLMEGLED
- experiment.description: Inhibition of recombinant mouse brain PDXP expressed in Escherichia coli BL21 (DE3) cells assessed as pyridoxal 5' phosphate dephosphorylation preincubated for 4 mins followed by substrate addition measured after 5 mins
assay.metric: pIC50
Give bare numbers, as −log10 of the molar value.

Consider the following items and state reported pIC50 for each.
1. Cc1ncc(/C=C/P(=O)(O)O)c(C=O)c1O
2. Cc1ncc(/C=C/P(=O)(O)O)c(CO)c1O

A.
[3.61, 2.89]

Could I get pIC50 for every one of these entries?
1. Cc1ncc(CCP(=O)(O)O)c(CO)c1O
2. Cc1ncc(CCP(=O)(O)O)c(C=O)c1O

A.
[2.89, 4.10]
